Recorded self-aminoacylation by entry
System: biotinyl-Phe-oxazolone
method-summary: self-aminoacylation, catalytic enhancement (BFO) (fold over background); higher = more active; k-Seq, kA / k0A0; sequences stand for … in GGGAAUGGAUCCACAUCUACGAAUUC…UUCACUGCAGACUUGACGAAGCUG
Fewer inactive variants are shown than the library holds.

macromolecule-sequence: AUUUCCCUGGUCAUCGAGUUA [Fam2.1 aminoacylation ribozyme variant]
self-aminoacylation: 2.12

macromolecule-sequence: AUACACCUAGCUCAUCGGGUG [Fam2.2 aminoacylation ribozyme variant]
self-aminoacylation: 4.61

macromolecule-sequence: AUUCUACUAGGUCAUCGGGUG [Fam2.2 aminoacylation ribozyme variant]
self-aminoacylation: 41.7

macromolecule-sequence: CCUCACUUCAAGCAAUCGGUC [Fam1B.1 aminoacylation ribozyme variant]
self-aminoacylation: 55.7

macromolecule-sequence: AUAACCCUGGUCAUCGAGGGA [Fam2.1 aminoacylation ribozyme variant]
self-aminoacylation: 2.14

###

Recorded self-aminoacylation by entry
Test system: biotinyl-Leu-oxazolone
method-summary: self-aminoacylation, catalytic enhancement (BLO) (fold over background); higher = more active; k-Seq, kA / k0A0; sequences stand for … in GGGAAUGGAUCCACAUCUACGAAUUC…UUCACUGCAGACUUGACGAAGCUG
This sample holds only a part of the variants without activity.

macromolecule-sequence: CUACUUCAAACAAAGGGUCUG [Fam1A.1 aminoacylation ribozyme variant]
self-aminoacylation: 0.567

macromolecule-sequence: CCAAACUUCAAACAAUCGGUC [Fam1B.1 aminoacylation ribozyme variant]
self-aminoacylation: 2.21

macromolecule-sequence: AUUCAGCUAGGUCAUCGGGUA [Fam2.2 aminoacylation ribozyme variant]
self-aminoacylation: 3.67

macromolecule-sequence: CUACUUCAAACAAUCGCUGUG [Fam1A.1 aminoacylation ribozyme variant]
self-aminoacylation: 2.54

macromolecule-sequence: GUUACCCUAGUCAUCGAGUGA [Fam2.1 aminoacylation ribozyme variant]
self-aminoacylation: 6.93

macromolecule-sequence: CUACUUAAAACACUCGGUCUG [Fam1A.1 aminoacylation ribozyme variant]
self-aminoacylation: 0.882

macromolecule-sequence: AUUACCCUGCUCAUAGAGUGA [Fam2.1 aminoacylation ribozyme variant]
self-aminoacylation: 8.96

macromolecule-sequence: AAAUUUGCUAAUAGUCGCGAG [Fam3.1 aminoacylation ribozyme variant]
self-aminoacylation: 2.53

macromolecule-sequence: AAUUUUGCUAACAGUCGCAAG [Fam3.1 aminoacylation ribozyme variant]
self-aminoacylation: 1.87

macromolecule-sequence: AUUCAUCUCGGUCAUCGGGUG [Fam2.2 aminoacylation ribozyme variant]
self-aminoacylation: 9.9

macromolecule-sequence: AUUCACCUAGGUCAUCGGCUU [Fam2.2 aminoacylation ribozyme variant]
self-aminoacylation: 2.3

macromolecule-sequence: AAGUUUGCGAAUAGUUGCAAG [Fam3.1 aminoacylation ribozyme variant]
self-aminoacylation: 0.661

macromolecule-sequence: AAGUUGGCGAAUAGUCGCAAG [Fam3.1 aminoacylation ribozyme variant]
self-aminoacylation: 1.51

macromolecule-sequence: AAGUGUGCUAAUAGUCUCAAG [Fam3.1 aminoacylation ribozyme variant]
self-aminoacylation: 1.44

macromolecule-sequence: AUUCAUCUAGGACAUCGGGUG [Fam2.2 aminoacylation ribozyme variant]
self-aminoacylation: 3.59

macromolecule-sequence: CCACACUUCAAGCAGACGGUC [Fam1B.1 aminoacylation ribozyme variant]
self-aminoacylation: 0.605

macromolecule-sequence: AUUACCCUGGUCAUCGCGCGA [Fam2.1 aminoacylation ribozyme variant]
self-aminoacylation: 6.23

macromolecule-sequence: CCACUUUUCAAGCAAUCGGUC [Fam1B.1 aminoacylation ribozyme variant]
self-aminoacylation: 1.1
